# Test system: inducible nitric oxide synthase (iNOS)
# assay name: iNOS suppression / NO assay in LPS-stimulated macrophages or RAW264.7 cells (Griess reaction)
# Type: cell-based, mouse
# stated conditions: Mus musculus, RAW264.7, 24 h; at 300 nM; percent of the LPS-stimulated control, lower is better; Table 6; read-out: iNOS suppression

>  <compound>
C=C(c1ccc(C(=O)O)cc1)c1cc(C(C)C)c(OCC(C)C)cc1C [drawing 111]

>  <activity at 0.3 µM [%]>
40

$$$$
>  <compound>
CCCN(c1cc(C(C)(C)C)cc(C(C)(C)C)c1)c1ccc(C(=O)O)cn1 [drawing 117]

>  <activity at 0.3 µM [%]>
13

$$$$
>  <compound>
CCN(c1ccc(C(=O)O)cc1)c1cc(C(C)(C)C)c(OC)c(C(C)(C)C)c1 [drawing 121]

>  <activity at 0.3 µM [%]>
74

$$$$
>  <compound>
C=C(c1ccc(C(=O)O)cc1)c1cc(C(C)(C)C)cc(C(C)(C)C)c1 [drawing 116]

>  <activity at 0.3 µM [%]>
61

$$$$
>  <compound>
CCN(c1ccc(C(=O)O)cc1)c1cc(C(C)(C)C)cc(C(C)(C)C)c1 [drawing 104]

>  <activity at 0.3 µM [%]>
43

$$$$
